- assayed-target: T1, HLA-A2/E6(29-38) tetramer (human; HPV 16)
- T1 construct: also called E6(29-38) peptide-MHC tetramer; E6 tet
- assay-comment: flow cytometry, tetramer + anti-CD8; transfected Jurkat-derived cells, CD8+ cells
Response field label: string, one of Yes (% cells E6 tet+/CD8+ quadrant strictly below 30%) or No.

binder: TCR 17 (codon-optimized, cysteine-modified) (TCR, V domains shown) V domain 1: AQKITQTQPGMFVQEKEAVTLDCTYDTSDPSYGLFWYKQPSSGEMIFLIYQGSYDQQNATEGRYSLNFQKARKSANLVISASQLGDSAMYFCAMREGRGDKIIFGKGTRLHILP V domain 2: DVKVTQSSRYLVKRTGEKVFLECVQDMDHENMFWYRQDPGLGLRLIYFSYDVKMKEKGDIPEGYSVSREKKERFSLILESASTNQTSMYLCASSLWGRSNQPQHFGDGTRLSILE
class-assignment: No

binder: TCR 22 (codon-optimized, cysteine-modified) (TCR, V domains shown) V domain 1: GQNIDQPTEMTATEGAIVQINCTYQTSGFNGLFWYQQHAGEAPTFLSYNVLDGLEEKGRFSSFLSRSKGYSYLLLKELQMKDSASYLCAVRARMDSNYQLIWGAGTKLIIKP V domain 2: DAGVTQSPTHLIKTRGQHVTLRCSPISGHKSVSWYQQVLGQGPQFIFQYYEKEERGRGNFPDRFSARQFPNYSSELNVNALLLGDSALYLCASSRTENYGYTFGSGTRLTVVE
class-assignment: No

binder: TCR 23 (codon-optimized, cysteine-modified) (TCR, V domains shown) V domain 1: AQKITQTQPGMFVQEKEAVTLDCTYDTSDQSYGLFWYKQPSSGEMIFLIYQGSYDEQNATEGRYSLNFQKARKSANLVISASQLGDSAMYFCAMSPPGGSARQLTFGSGTQLTVLP V domain 2: DVKVTQSSRYLVKRTGEKVFLECVQDMDHENMFWYRQDPGLGLRLIYFSYDVKMKEKGDIPEGYSVSREKKERFSLILESASTNQTSMYLCASSPWGQSNQPQHFGDGTRLSILE
class-assignment: No

binder: TCR 18 (codon-optimized, cysteine-modified) (TCR, V domains shown) V domain 1: KQEVTQIPAALSVPEGENLVLNCSFTDSAIYNLQWFRQDPGKGLTSLLLIQSSQREQTSGRLNASLDKSSGRSTLYIAASQPGDSATYLCAEGNAGGTSYGKLTFGQGTILTVHP V domain 2: DVKVTQSSRYLVKRTGEKVFLECVQDMDHENMFWYRQDPGLGLRLIYFSYDVKMKEKGDIPEGYSVSREKKERFSLILESASTNQTSMYLCASSFWGRSNSPLHFGNGTRLTVTE
class-assignment: No

binder: TCR 27 (codon-optimized, cysteine-modified) (TCR, V domains shown) V domain 1: DAKTTQPNSMESNEEEPVHLPCNHSTISGTDYIHWYRQLPSQGPEYVIHGLTSNVNNRMASLAIAEDRKSSTLILHRATLRDAAVYYCILRVPPQSGGYQKVTFGTGTKLQVIP V domain 2: NAGVTQTPKFQVLKTGQSMTLQCAQDMNHNSMYWYRQDPGMGLRLIYYSASEGTTDKGEVPNGYNVSRLNKREFSLRLESAAPSQTSVYFCASSEFGSLNEKLFFGSGTQLSVLE
class-assignment: Yes

binder: TCR 21 (codon-optimized, cysteine-modified) (TCR, V domains shown) V domain 1: AQKITQTQPGMFVQEKEAVTLDCTYDTSDQSYGLFWYKQPSSGEMIFLIYQGSYDEQNATEGRYSLNFQKARKSANLVISASQLGDSAMYFCAMREGRVTGGGNKLTFGTGTQLKVEL V domain 2: NAGVTQTPKFQVLKTGQSMTLQCAQDMNHNSMYWYRQDPGMGLRLIYYSASEGTTDKGEVPNGYNVSRLNKREFSLRLESAAPSQTSVYFCASRPWGNQNTEAFFGQGTRLTVVE
class-assignment: No
